B1: Hairpin Ribozyme (parent)
chain: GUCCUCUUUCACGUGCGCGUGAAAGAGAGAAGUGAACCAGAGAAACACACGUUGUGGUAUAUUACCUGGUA

# Variants of: B1
# ASSAY_NAME: self-cleavage, relative activity (ratio to wild type); higher = more cleavage; co-transcriptional
Label T when self-cleavage is at or above 0.2; otherwise label F.

SEQUENCE_ENTRY: GUCCUCUUUCACGUGCGCGUGAAAUACAGAAGUGAACCAGAGAAACACACGUUGUGGUAUAUUACCUGGUA [G25U G27C]
LABEL_VALUE: T
--
SEQUENCE_ENTRY: GUCAUCUUUCACGUGCGCGUGAAAGAGCGAAGUGAACCAGAGAAACACACGUUGUGGUAUAUUACCUGGUA [C4A A28C]
LABEL_VALUE: F
--
SEQUENCE_ENTRY: GUCCUCUUUCACGUGCGCGUGAAAGAUAGAAGUGAACCAGAGAAACACACGUUGUGGUAUAUUAACUGGUA [G27U C65A]
LABEL_VALUE: F
--
SEQUENCE_ENTRY: GUCCUCUUUCACGUGCUCGUGAAAGAGAGAAGUGAACCAGAUAAACACACGUUGUGGUAUAUUACCUGGUA [G17U G42U]
LABEL_VALUE: T
--
SEQUENCE_ENTRY: GUCCUCUUUCACGUGCGCGGGAAAGAGAGAAGUGAACCAGAGAUACACACGUUGUGGUAUAUUACCUGGUA [U20G A44U]
LABEL_VALUE: F
--
SEQUENCE_ENTRY: GUCCUCUUUCACGUGCCCGUGAAAGAGAGAAGUAAACCAGAGAAACACACGUUGUGGUAUAUUACCUGGUA [G17C G34A]
LABEL_VALUE: T
--
SEQUENCE_ENTRY: GUCCUCUUUCACGUGCGCGUGAGAGAGAGAAGUGAACCAGAGUAACACACGUUGUGGUAUAUUACCUGGUA [A23G A43U]
LABEL_VALUE: F
--
SEQUENCE_ENTRY: GUCCUCUUUCACGUGCGCGUGAAAGAGAGAAGUGAACCAGAGAAACACAGGUUGUGGUAUUUUACCUGGUA [C50G A61U]
LABEL_VALUE: T
--
SEQUENCE_ENTRY: GUCCUCUUUGACGUGCGCGUGAAAGAGAGAAGUGAACCAGAGAAACCCACGUUGUGGUAUAUUACCUGGUA [C10G A47C]
LABEL_VALUE: T
--
SEQUENCE_ENTRY: GUCCUCUUUCACGGGCGCGUGAAAGAGAGAAGUGAACCAGAGAAACACACGUUGUGGUAUAUUACCUGGUU [U14G A71U]
LABEL_VALUE: T
--
SEQUENCE_ENTRY: GUCCUCUUUCACGUGCGCGUGAAAGAGAGAAGUGAACCAGAGAAACACACGUUGUGGCAUAUUAUCUGGUA [U58C C65U]
LABEL_VALUE: T
--
SEQUENCE_ENTRY: GUCCUGUUUCACGUGCGCGUGAAAGAGAGAAGUGAACCAGAGAAACACACGUGGUGGUAUAUUACCUGGUA [C6G U53G]
LABEL_VALUE: T
--
SEQUENCE_ENTRY: GUCCUCUUUCACGUGCGCGGGAAAGAGAGAAUUGAACCAGAGAAACACACGUUGUGGUAUAUUACCUGGUA [U20G G32U]
LABEL_VALUE: F
--
SEQUENCE_ENTRY: GUCCUCUUUCACGUGCGCGUGAAAGAGAGAAGUGAACCAGAGAAACUCACGUUGUGGUAUAUUGCCUGGUA [A47U A64G]
LABEL_VALUE: F
--
SEQUENCE_ENTRY: GUCCUCUUUCACGUGCGCGUGAAAGAGAGAAGUGAACUAGAGAAACACACGUUGUCGUAUAUUACCUGGUA [C38U G56C]
LABEL_VALUE: F
--
SEQUENCE_ENTRY: GUCCUCUUUCAGGUGCGCGUGAAAGAGAGAAGUGAACCAGAGAAACACACCUUGUGGUAUAUUACCUGGUA [C12G G51C]
LABEL_VALUE: T
--
SEQUENCE_ENTRY: GUCCUCUUUCACGUGCGCGCGAAAGAGAGAAGUGAACCAGAGAAACACACGUUGUGGUAUAUCACCUGGUA [U20C U63C]
LABEL_VALUE: F
--
SEQUENCE_ENTRY: AUCCUCUUUGACGUGCGCGUGAAAGAGAGAAGUGAACCAGAGAAACACACGUUGUGGUAUAUUACCUGGUA [G1A C10G]
LABEL_VALUE: T
--
SEQUENCE_ENTRY: GUCCUCUUUCACGUGCGCGUGAAAGAGAGAAGUGAACCAGCGAAACACACGUUAUGGUAUAUUACCUGGUA [A41C G54A]
LABEL_VALUE: T
--
SEQUENCE_ENTRY: GUCCUCUUUCACGUGCGCGUGAAAGAGAGAAGUGAAACAGAGAAACACACGUUGUGGUAUAUUACCUGGUG [C37A A71G]
LABEL_VALUE: T
--
SEQUENCE_ENTRY: GUCCUCUUUCACGUGCGCGUAAAAGAGAGAAGUGAAUCAGAGAAACACACGUUGUGGUAUAUUACCUGGUA [G21A C37U]
LABEL_VALUE: T
--
SEQUENCE_ENTRY: GUCCUCUUUCACGUGCGCGUGAAAGAGAGAAGUGAACCAGAGAGACACACGUGGUGGUAUAUUACCUGGUA [A44G U53G]
LABEL_VALUE: F
--
SEQUENCE_ENTRY: GUCCUCUUUCAAGUGCGCGUGAAAGAGAGAAGUGAACCAGAGAAAGACACGUUGUGGUAUAUUACCUGGUA [C12A C46G]
LABEL_VALUE: F
--
SEQUENCE_ENTRY: GUCCUCUUUCACGUGCGCGUGAAAGAGAGAAGUGAACCAGAGAAACUCACGUUGAGGUAUAUUACCUGGUA [A47U U55A]
LABEL_VALUE: F
--
SEQUENCE_ENTRY: GUCCUCUUUUACGUGCGUGUGAAAGAGAGAAGUGAACCAGAGAAACACACGUUGUGGUAUAUUACCUGGUA [C10U C18U]
LABEL_VALUE: T
--
SEQUENCE_ENTRY: GUCCUCAUUCACGUGCGCGUGAAAGAGAGAAGUGAACCAGAGAAACACAUGUUGUGGUAUAUUACCUGGUA [U7A C50U]
LABEL_VALUE: T
--
SEQUENCE_ENTRY: GUCCUCUUUCACGUGCGCGUGAAAGAGAGAAGUGAACCAGAGAAACACACGUUGUCGUAUAUUACCUGUUA [G56C G69U]
LABEL_VALUE: T
--
SEQUENCE_ENTRY: GUGCUCUUUCACGUGCGCGUGAAAGAGAGAAGUGAACCAGAGAAACACACGUUGUGGUAUAUUACUUGGUA [C3G C66U]
LABEL_VALUE: T
--
SEQUENCE_ENTRY: GUCCUCUGUCACGUGCGCGUGAAAGAGAGAAGUGAACCAGAGAAACACACGUUGUGGUAUAUUACCGGGUA [U8G U67G]
LABEL_VALUE: T
--
SEQUENCE_ENTRY: GUCCUCUUUCACGUGCGCGUAAAAGAGAGAAGUGAACCAGAGAAUCACACGUUGUGGUAUAUUACCUGGUA [G21A A45U]
LABEL_VALUE: T
--
SEQUENCE_ENTRY: GUCCUCUUUCACGUGCUCGUGAAAGAGAGAAGUGAACCAGAGAAACGCACGUUGUGGUAUAUUACCUGGUA [G17U A47G]
LABEL_VALUE: F
--
SEQUENCE_ENTRY: GUCCUCCUUCACGUGCGCGUGACAGAGAGAAGUGAACCAGAGAAACACACGUUGUGGUAUAUUACCUGGUA [U7C A23C]
LABEL_VALUE: T
--
SEQUENCE_ENTRY: GUCCUCUUUCACGUGCGCGUGAAAGAGAGAAGUAAACCAGAGAAACACACGUUGUGGUAUAUUACCGGGUA [G34A U67G]
LABEL_VALUE: T
--
SEQUENCE_ENTRY: GUACUCUUUCACGUGCGCGUGAAAGAGAGAAGUGAACCAGAGAAAGACACGUUGUGGUAUAUUACCUGGUA [C3A C46G]
LABEL_VALUE: F
--
SEQUENCE_ENTRY: GUCCUCUUUCACGUGCGCGUGAAAGAGAGAAGUGAACCAGAGAAACAGGCGUUGUGGUAUAUUACCUGGUA [C48G A49G]
LABEL_VALUE: F
--
SEQUENCE_ENTRY: GUCCUCUUUCACGUGCGCGUGAAAGAGAGAAGUGAACCAGAGAAACACACGUUGUGGUAUAUUACCUGGGG [U70G A71G]
LABEL_VALUE: T
--
SEQUENCE_ENTRY: GUCCUCUUGCACGUGCGCGUGAAAGAGAGAAGUGAACCAGAGAAACACACGUUGUGGUAUAUUAUCUGGUA [U9G C65U]
LABEL_VALUE: F
--
SEQUENCE_ENTRY: CUCCUCUUUCACGUGCGCGUGAAAGAGAGAAGUGAACCAGAGAAACACACGUUGUGGUAUAUUCCCUGGUA [G1C A64C]
LABEL_VALUE: F
--
SEQUENCE_ENTRY: GUUCUCAUUCACGUGCGCGUGAAAGAGAGAAGUGAACCAGAGAAACACACGUUGUGGUAUAUUACCUGGUA [C3U U7A]
LABEL_VALUE: T
--
SEQUENCE_ENTRY: GUCCGCUUUCACGUGCGCGUGAAAGAGAGAAGUGAACCAGAGAAACACACGUUGUGGUAUCUUACCUGGUA [U5G A61C]
LABEL_VALUE: F
--
SEQUENCE_ENTRY: GUCCUCUUUUACGUGCGCGUUAAAGAGAGAAGUGAACCAGAGAAACACACGUUGUGGUAUAUUACCUGGUA [C10U G21U]
LABEL_VALUE: T
--
SEQUENCE_ENTRY: GUCCUCUUUCACGUGCGCGUGAAAGAGAGAAGUGAACCAGAGAAACACACGUUGUGGUAUAUUGCCUGUUA [A64G G69U]
LABEL_VALUE: F
--
SEQUENCE_ENTRY: GUCCUCUUUCACGUGCGCGUGAAAGAGAGAAGUGAACCAGAGAAACACACGUUGUGGUGUAUUUCCUGGUA [A59G A64U]
LABEL_VALUE: F
